Catalogue of binders with associated Imax
Target: human GCGR (full-length glucagon receptor of 477 amino acids) (human, UniProt P47871 26-477)
Sequence (P47871 26-477 limits assumed): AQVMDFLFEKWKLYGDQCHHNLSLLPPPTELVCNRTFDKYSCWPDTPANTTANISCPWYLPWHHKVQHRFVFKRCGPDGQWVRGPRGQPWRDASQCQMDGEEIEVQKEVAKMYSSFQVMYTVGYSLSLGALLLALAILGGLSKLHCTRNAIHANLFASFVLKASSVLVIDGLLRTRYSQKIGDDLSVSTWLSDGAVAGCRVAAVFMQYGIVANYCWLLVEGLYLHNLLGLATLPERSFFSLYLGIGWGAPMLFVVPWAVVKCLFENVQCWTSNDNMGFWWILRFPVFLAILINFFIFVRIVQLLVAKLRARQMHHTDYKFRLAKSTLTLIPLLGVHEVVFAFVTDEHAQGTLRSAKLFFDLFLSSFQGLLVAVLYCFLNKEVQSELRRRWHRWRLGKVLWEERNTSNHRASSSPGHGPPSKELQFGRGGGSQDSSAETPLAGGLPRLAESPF
Experiment: cell-based or functional assay
Reported endpoint: Imax (%)

>>> measured("hu1810-10 (antibody, human IgG4 S228P, kappa, F234A L235A, V domains shown) VH: QVQLVQSGAEVKKPGSSVKVSCKASGGTFSNYAISWVRQAPGQGLEWMGEIYPTSGNTYYNEKFKGRVTITADRSTSTMYMELSSLRSEDTAVYYCASGVITTVVSTDYFDYWGQGTLVTVSS VL: DIQMTQSPSSLSASVGDRVTITCRASLDISNYLNWYQLKPGKAVKLLIYYTSTLHSGVSSRFSGSGSGTEYTLTISSLQPEDFATYYCQQGNMVPYTFGGGTKVEIKR")
97.4
>>> measured("hu1810-12 (antibody, human IgG4 S228P, kappa, F234A L235A, V domains shown, IgG4-AA / kappa humanized antibody; also called hu1810_VH.1C + hu1810_VL.1B) VH: QVQLVQSGAEVKKPGSSVKVSCKASGGTFSNYAISWVKQAPGQGLEWIGEIYPTSGNTYYNEKFKGKATLTADRSTSTMYMELSSLRSEDTAVYYCASGVITTVVSTDYFDYWGQGTLVTVSS VL: DIQMTQSPSSLSASVGDRVTITCRASLDISNYLNWYQLKPGKAVKLLIYYTSTLHSGVSSRFSGSGSGTEYTLTISSLQPEDFATYYCQQGNMVPYTFGGGTKVEIKR")
99.7
>>> measured("hu1810-11 (antibody, human IgG4 S228P, kappa, F234A L235A, V domains shown) VH: QVQLVQSGAEVKKPGSSVKVSCKASGGTFSNYAISWVRQAPGQGLEWIGEIYPTSGNTYYNEKFKGRATLTADRSTSTMYMELSSLRSEDTAVYYCASGVITTVVSTDYFDYWGQGTLVTVSS VL: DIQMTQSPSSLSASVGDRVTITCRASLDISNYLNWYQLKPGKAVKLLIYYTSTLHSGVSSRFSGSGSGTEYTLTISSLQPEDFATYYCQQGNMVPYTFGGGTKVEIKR")
99.6

The measurements presented in this section are drawn from patent US20220153853A1.
